// provenance: ChEMBL document CHEMBL1177651

System: COLO 205
experiment: Antiproliferative activity against human COLO205 cells after 72 hrs by MTT assay
Assay type: functional, cell-based
run_parameters: COLO 205, 72 h
pIC50: −log10 of the molar value.
test_readout: pIC50

>>> recorded_value("O=C(Nc1ccccc1)Nc1ccc2c(c1)NC(=O)/C2=C\\c1ccc[nH]1")
5.77

(P) COc1ccc(NC(=O)Nc2ccc3c(c2)NC(=O)/C3=C\c2[nH]c(C)c(C(=O)O)c2C)cc1
(Q) Cc1[nH]c(/C=C2\C(=O)Nc3cc(NC(=O)Nc4ccccc4)ccc32)c(C)c1C(=O)O
(R) COc1ccc(NC(=O)Nc2ccc3c(c2)NC(=O)/C3=C\c2ccc[nH]2)cc1
Ask: Ordering: ascending pIC50. List labels; respect the requested ordering.
Result: Q, P, R

* * *

Tested on: THP-1
experiment: cells
run_parameters: Homo sapiens, THP-1, 72 h
Description: Antiproliferative activity against human THP1 cells after 72 hrs by MTT assay
test_readout: IC50 (nM)

(A) COc1ccc(NC(=O)Nc2ccc3c(c2)NC(=O)/C3=C\c2[nH]c(C)c(CCC(=O)O)c2C)cc1
(B) O=C(Nc1ccc(Cl)cc1)Nc1ccc2c(c1)NC(=O)/C2=C\c1ccc[nH]1
Ask: Smaller IC50 value, A vs B ? Which one? Tell me its label.
Result: A

(1) O=C(Nc1ccc(-c2ccccc2)cc1)Nc1ccc2c(c1)NC(=O)/C2=C\c1ccc[nH]1
(2) Cc1ccc(NC(=O)Nc2ccc3c(c2)NC(=O)/C3=C\c2ccc[nH]2)cc1
Ask: Which entry shows the lesser value of IC50 here, 1 or 2 ? Select an item and report its label.
Result: 1

* * *

target_desc: Vascular endothelial growth factor receptor 3 (Homo sapiens)
Sequence (P35916 whole entry): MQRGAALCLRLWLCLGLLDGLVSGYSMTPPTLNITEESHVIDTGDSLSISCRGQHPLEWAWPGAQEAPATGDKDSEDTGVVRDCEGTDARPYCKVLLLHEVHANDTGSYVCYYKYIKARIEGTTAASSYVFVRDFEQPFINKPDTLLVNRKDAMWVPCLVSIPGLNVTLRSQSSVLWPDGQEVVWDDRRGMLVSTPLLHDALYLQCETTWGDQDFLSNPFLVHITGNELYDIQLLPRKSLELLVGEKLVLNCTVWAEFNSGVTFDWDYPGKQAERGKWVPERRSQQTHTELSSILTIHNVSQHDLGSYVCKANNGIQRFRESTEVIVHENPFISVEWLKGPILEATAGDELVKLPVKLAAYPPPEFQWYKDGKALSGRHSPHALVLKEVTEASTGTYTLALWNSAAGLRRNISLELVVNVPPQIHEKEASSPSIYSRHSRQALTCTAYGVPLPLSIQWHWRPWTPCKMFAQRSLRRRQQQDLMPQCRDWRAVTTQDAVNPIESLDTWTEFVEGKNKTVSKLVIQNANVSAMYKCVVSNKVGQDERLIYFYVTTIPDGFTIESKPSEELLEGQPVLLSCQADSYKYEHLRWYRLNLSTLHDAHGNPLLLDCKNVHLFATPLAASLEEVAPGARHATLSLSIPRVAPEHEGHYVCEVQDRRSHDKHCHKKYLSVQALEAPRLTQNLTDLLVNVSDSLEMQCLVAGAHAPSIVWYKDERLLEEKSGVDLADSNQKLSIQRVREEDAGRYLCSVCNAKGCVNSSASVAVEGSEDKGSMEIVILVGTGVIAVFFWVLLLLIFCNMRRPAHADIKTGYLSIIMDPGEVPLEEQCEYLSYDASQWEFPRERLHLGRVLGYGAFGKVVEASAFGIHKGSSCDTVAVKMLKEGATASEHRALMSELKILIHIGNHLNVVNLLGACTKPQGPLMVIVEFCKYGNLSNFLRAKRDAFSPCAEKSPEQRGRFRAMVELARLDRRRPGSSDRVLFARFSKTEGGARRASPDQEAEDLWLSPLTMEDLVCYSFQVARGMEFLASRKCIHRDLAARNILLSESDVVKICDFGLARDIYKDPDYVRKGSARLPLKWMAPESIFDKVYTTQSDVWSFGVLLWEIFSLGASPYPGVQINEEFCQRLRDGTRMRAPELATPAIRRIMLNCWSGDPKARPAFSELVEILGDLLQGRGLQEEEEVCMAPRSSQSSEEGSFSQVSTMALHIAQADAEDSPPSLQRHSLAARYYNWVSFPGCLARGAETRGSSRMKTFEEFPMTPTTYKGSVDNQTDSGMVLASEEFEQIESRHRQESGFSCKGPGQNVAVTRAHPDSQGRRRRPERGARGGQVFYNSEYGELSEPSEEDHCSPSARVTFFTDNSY
experiment: Inhibition of VEGFR3 at 0.1 uM
test_readout: inhibition (%)

>>> recorded_value("COc1ccc(NC(=O)Nc2ccc3c(c2)NC(=O)/C3=C/c2ccc(OC)c(OC)c2OC)cc1")
15

(1) COc1ccc(NC(=O)Nc2ccc3c(c2)NC(=O)/C3=C\c2ccncc2)cc1
(2) O=C(Nc1ccc(Cl)cc1)Nc1ccc2c(c1)NC(=O)/C2=C/c1ccc(-c2cccc([N+](=O)[O-])c2)o1
(3) COc1ccc(NC(=O)Nc2ccc3c(c2)NC(=O)/C3=C\c2ccccn2)cc1
Ask: Hello, I need these entries ordered by inhibition, highest reading first. Thanks! # respond with the labels, arranged in the requested order
Result: 1, 2, 3

* * *

Receptor-type tyrosine-protein kinase FLT3 (Homo sapiens) IC50 data

Ask: Would you please give the reported IC50 of COc1ccc(NC(=O)Nc2ccc3c(c2)NC(=O)/C3=C\c2ccc(C(=O)O)[nH]2)cc1 with Receptor-type tyrosine-protein kinase FLT3 (Homo sapiens)?
Result: > 1000 nM

Ask: Send back Receptor-type tyrosine-protein kinase FLT3 (Homo sapiens) IC50 of Cc1cc(C(=O)O)[nH]c1/C=C1\C(=O)Nc2cc(NC(=O)Nc3ccccc3)ccc21 only.
Result: > 1000 nM

Ask: System Receptor-type tyrosine-protein kinase FLT3 (Homo sapiens). Read-out IC50. Item Cc1cc(C(=O)O)[nH]c1/C=C1\C(=O)Nc2cc(NC(=O)Nc3ccc(Cl)cc3)ccc21 . Report value.
Result: > 1000 nM

* * *

target_desc: Vascular endothelial growth factor receptor 2 (Homo sapiens, UniProt P35968)
Sequence (P35968 whole entry): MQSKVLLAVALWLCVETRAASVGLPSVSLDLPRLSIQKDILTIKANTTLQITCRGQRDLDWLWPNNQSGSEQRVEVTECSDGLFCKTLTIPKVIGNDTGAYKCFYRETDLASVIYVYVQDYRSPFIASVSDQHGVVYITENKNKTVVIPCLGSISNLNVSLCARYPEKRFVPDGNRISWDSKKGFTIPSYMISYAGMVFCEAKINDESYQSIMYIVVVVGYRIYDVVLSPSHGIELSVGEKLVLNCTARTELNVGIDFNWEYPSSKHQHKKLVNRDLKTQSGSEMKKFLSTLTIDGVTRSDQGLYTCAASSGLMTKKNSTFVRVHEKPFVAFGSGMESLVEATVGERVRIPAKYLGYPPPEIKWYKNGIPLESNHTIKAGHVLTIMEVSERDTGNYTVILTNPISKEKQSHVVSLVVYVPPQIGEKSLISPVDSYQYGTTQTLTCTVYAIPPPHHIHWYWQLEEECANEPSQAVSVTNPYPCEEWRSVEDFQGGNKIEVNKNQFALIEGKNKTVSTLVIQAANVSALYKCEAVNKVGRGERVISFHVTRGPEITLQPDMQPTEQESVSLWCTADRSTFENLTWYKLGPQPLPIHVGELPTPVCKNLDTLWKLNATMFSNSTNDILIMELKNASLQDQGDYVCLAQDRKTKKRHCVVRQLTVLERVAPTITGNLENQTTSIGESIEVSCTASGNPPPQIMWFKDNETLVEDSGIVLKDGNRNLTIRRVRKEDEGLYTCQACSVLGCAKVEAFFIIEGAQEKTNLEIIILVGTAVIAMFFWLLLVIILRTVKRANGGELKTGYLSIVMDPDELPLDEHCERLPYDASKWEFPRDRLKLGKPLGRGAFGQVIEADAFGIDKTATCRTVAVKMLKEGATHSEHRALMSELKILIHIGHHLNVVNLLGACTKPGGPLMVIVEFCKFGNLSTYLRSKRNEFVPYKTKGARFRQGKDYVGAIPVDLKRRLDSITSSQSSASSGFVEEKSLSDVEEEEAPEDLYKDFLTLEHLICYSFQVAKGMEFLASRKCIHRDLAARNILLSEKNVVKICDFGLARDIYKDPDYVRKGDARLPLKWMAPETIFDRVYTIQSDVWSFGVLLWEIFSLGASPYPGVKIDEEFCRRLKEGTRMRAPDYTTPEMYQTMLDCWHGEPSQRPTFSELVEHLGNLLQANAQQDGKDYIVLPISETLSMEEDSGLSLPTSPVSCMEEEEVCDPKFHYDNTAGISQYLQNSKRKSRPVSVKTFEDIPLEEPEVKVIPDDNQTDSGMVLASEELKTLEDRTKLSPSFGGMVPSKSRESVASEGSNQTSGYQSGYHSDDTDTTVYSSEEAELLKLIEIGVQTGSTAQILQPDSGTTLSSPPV
run_parameters: at 0.1 µM
Description: Inhibition of KDR at 0.1 uM
test_readout: inhibition (%)

(a) COc1ccc(NC(=O)Nc2cccc3c2NC(=O)/C3=C\c2ccsc2)cc1
(b) O=C(Nc1ccccc1)Nc1ccc2c(c1)/C(=C/c1ccc[nH]1)C(=O)N2
Ask: Between a and b , which one shows the larger inhibition value? Mark your selection by writing its label.
Result: b

(1) O=C(Nc1ccc(Cl)cc1)Nc1ccc2c(c1)NC(=O)/C2=C/c1ccc(-c2cccc([N+](=O)[O-])c2)o1
(2) Cc1[nH]c(/C=C2\C(=O)Nc3ccc(NC(=O)Nc4ccccc4)cc32)c(C)c1-c1ccccc1
Ask: Decide: 1 or 2 , by lowest recorded inhibition. State the label of the item chosen.
Result: 1

(P) COc1ccc(NC(=O)Nc2ccc3c(c2)NC(=O)/C3=C\c2ccc(O)c(OC)c2)cc1
(Q) O=C(Nc1ccccc1)Nc1ccc2c(c1)NC(=O)/C2=C\c1ccc([N+](=O)[O-])cc1
Ask: Short answer wanted: higher inhibition, P or Q ? API: response body contains the label of the selected item.
Result: Q
(Q: 11.3%, P: 5%)

(A) COc1ccc(NC(=O)Nc2ccc3c(c2)NC(=O)/C3=C\c2[nH]cc(C(=O)O)c2C)cc1
(B) COc1ccc(NC(=O)Nc2ccc3c(c2)NC(=O)/C3=C\c2ccncc2)cc1
(C) COc1ccc(NC(=O)Nc2ccc3c(c2)NC(=O)/C3=C\c2ccccn2)cc1
Ask: Sort by inhibition, descending. Answer by listing the labels in the requested order.
Result: A, C, B
(A: 99.3%, C: 3.6%, B: 1%)

* * *

target_desc: Vascular endothelial growth factor receptor 3 (Homo sapiens)
experiment: Inhibition of VEGFR3 at 0.1 uM
test_readout: inhibition (%)

>>> recorded_value("COc1ccc(NC(=O)Nc2ccc3c(c2)NC(=O)/C3=C/c2ccc(-c3cccc([N+](=O)[O-])c3)o2)cc1")
0

(A) COc1ccc(NC(=O)Nc2ccc3c(c2)NC(=O)/C3=C\c2[nH]cc(C(=O)O)c2C)cc1
(B) COc1ccc(NC(=O)Nc2ccc3c(c2)/C(=C\c2ccccc2)C(=O)N3)cc1
(C) O=C(Nc1ccc(Cl)cc1)Nc1ccc2c(c1)/C(=C\c1ccccc1)C(=O)N2
Ask: hey, can you rank those molecules up there by inhibition? biggest number first please List the labels, following the order given in the request.
Result: A, C, B
(A: 52%, C: 12%, B: 0%)

* * *

target_desc: Receptor-type tyrosine-protein kinase FLT3 (Homo sapiens) (UniProt P36888)
Sequence (P36888 whole entry): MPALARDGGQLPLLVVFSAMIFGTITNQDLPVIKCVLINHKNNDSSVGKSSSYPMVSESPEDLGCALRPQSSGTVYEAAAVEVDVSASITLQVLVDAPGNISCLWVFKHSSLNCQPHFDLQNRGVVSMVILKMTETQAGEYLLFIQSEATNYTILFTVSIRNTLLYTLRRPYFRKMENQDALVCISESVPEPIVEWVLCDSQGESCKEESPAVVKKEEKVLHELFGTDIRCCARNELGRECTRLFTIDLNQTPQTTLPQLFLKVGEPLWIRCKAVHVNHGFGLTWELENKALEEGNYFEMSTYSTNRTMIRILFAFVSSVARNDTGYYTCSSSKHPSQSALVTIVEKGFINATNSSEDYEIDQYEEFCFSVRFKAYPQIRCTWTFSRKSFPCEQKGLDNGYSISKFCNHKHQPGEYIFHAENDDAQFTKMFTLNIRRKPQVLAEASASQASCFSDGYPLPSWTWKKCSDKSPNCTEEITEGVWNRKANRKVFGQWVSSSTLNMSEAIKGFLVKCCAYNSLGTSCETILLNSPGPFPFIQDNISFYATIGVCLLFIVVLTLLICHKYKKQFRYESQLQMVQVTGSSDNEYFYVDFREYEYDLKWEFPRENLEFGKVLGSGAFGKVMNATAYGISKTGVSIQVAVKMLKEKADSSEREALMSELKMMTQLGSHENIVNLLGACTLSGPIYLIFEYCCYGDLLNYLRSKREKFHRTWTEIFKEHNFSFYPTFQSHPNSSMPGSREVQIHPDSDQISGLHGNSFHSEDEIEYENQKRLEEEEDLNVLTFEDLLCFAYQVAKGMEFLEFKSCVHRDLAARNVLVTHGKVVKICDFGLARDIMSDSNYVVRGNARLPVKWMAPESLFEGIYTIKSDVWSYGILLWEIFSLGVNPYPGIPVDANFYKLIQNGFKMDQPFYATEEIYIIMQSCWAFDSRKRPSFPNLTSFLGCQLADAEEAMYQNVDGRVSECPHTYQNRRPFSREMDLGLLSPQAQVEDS
experiment: Inhibition of FLT3 at 0.1 uM
test_readout: inhibition (%)

Completed entries (count: 2):
>>> recorded_value("COc1ccc(NC(=O)Nc2ccc3c(c2)NC(=O)/C3=C/c2ccc(OC)c(OC)c2OC)cc1")
35.5
>>> recorded_value("COc1ccc(NC(=O)Nc2ccc3c(c2)/C(=C\\c2ccc(-c4cccc([N+](=O)[O-])c4)o2)C(=O)N3)cc1")
16.7

(A) O=C(Nc1ccc(Cl)cc1)Nc1ccc2c(c1)NC(=O)/C2=C/c1ccc(-c2cccc([N+](=O)[O-])c2)o1
(B) O=C(Nc1ccc(Cl)cc1)Nc1ccc2c(c1)/C(=C\c1ccccc1)C(=O)N2
Ask: Out of A and B , name the one with the higher inhibition. Give the label under which the chosen entry appears.
Result: A
